target: aldose reductase (Bos taurus); construct: preparation of the enzyme from bovine lens; from tissue; host or cells: bovine lens; test: in vitro inhibition of aldose reductase (enzyme from bovine lens, modified Hayman and Kinoshita procedure); type: biochemical; settings: 10^-7; read-out: % inhibition in vitro
measured-quantity: inhibition at 0.1 µM (%)

{"columns": ["smi", "measured-quantity", "value-reported"],
 "data": [
  ["O=C1CN(S(=O)(=O)c2ccc(Br)c3ccccc23)C(=O)N1", "inhibition at 0.1 µM", 31],
  ["COc1ccc2c(S(=O)(=O)N3CC(=O)NC3=O)cccc2c1C(F)(F)F", "inhibition at 0.1 µM", 43],
  ["O=C1CN(S(=O)(=O)c2cccc3c(I)cccc23)C(=O)N1", "inhibition at 0.1 µM", 59],
  ["O=C1CN(S(=O)(=O)c2ccc3c(Br)cccc3c2)C(=O)N1", "inhibition at 0.1 µM", 24],
  ["O=C1CN(S(=O)(=O)c2cccc3ccccc23)C(=O)N1", "inhibition at 0.1 µM", 14],
  ["O=C1CN(S(=O)(=O)c2cccc3cc(Br)ccc23)C(=O)N1", "inhibition at 0.1 µM", 23],
  ["O=C1CN(S(=O)(=O)c2cccc3c(Cl)cccc23)C(=O)N1", "inhibition at 0.1 µM", 36],
  ["O=C1CN(S(=O)(=O)c2cccc3c(Br)cccc23)C(=O)N1", "inhibition at 0.1 µM", 45],
  ["O=C1CN(S(=O)(=O)c2cccc3ccc(Br)cc23)C(=O)N1", "inhibition at 0.1 µM", 36]
]}
